Collected pEC50 values appear next to each entry.
# System: PKC mediated IL-2 production
# methodDescription: IL-2 ELISA, human primary T cell, anti CD3+CD28+
# Format: cell-based
# testContext: Homo sapiens, T-cell, 24 h, human primary T cells stimulated with αCD3 and αCD28, 24 hours
pEC50: −log10 of the molar value.
experimentalReadout: pEC50

1. CC1(C)C[C@H](Nc2nc(Nc3ccc(OCCO)c(C(F)(F)F)c3)ncc2F)C[C@@H]2CCCN21 [Compound 131]; > 7.00
2. Cn1nnn(-c2cc(Nc3ncc(F)c(NC4CC5CCCN5C(C)(C)C4)n3)ccc2OC2COC2)c1=O (racemic) [Compound 38]; 6.30 to 7.00
3. CC1(C)C[C@H](Nc2nc(Nc3ccc(N4CC(C(N)=O)C4)c(C(F)(F)F)c3)ncc2F)C[C@@H]2CCCN21 [Compound 324]; 6.00 to 6.30
4. CC1(C)Oc2ccc(Nc3ncc(F)c(N[C@@H]4C[C@@H]5CCCN5C(C)(C)C4)n3)cc2-n2c1nn(C(CO)CCl)c2=O (stereo partly shown) [Compound 250]; 5.00 to 6.00
5. COc1ccc(Nc2ncc(F)c(N[C@@H]3C[C@@H]4CCCN4C(C)(C)C3)n2)cc1-n1nnn(C2COC2)c1=O [Compound 285]; 6.30 to 7.00
6. COc1ccc(Nc2ncc(F)c(N[C@@H]3C[C@@H]4CCCN4C(C)(C)C3)n2)cc1-n1nnnc1OC1COC1 [Compound 284]; > 7.00
7. Cc1ccc(Nc2ncc(Cl)c(N[C@@H]3C[C@@H]4CCCN4C(C)(C)C3)n2)cc1C#N [Compound 154]; > 7.00
